# SYSTEM NAME: Nuclear receptor subfamily 1 group I member 2 (Rattus norvegicus)
# ASSAY DETAILS: Rat pregnane X receptor (rPXR) activation by small molecules, qHTS assay (AID 1346983); note: % is set by controls: 0 for no effect and ±100 for the full control effect; nearly all actives have a fitted effect of over 20% in size
# CONDITION CONTEXT: rPXR luciferase reporter cells, One-Glo luminescence, 24 h; active compounds read high
Results filed as inconclusive are left out.
// values below are reported max activation
ASSAY ENDPOINT: max activation (%)

1) CC(=O)NC[C@H]1CN(c2ccc(N3CCOCC3)c(F)c2)C(=O)O1
-2.66
2) CCN(CC)C(=S)S
-4.17
3) CC(=NCc1ccccc1)c1ccccc1O
-4.51
4) CO[C@H]1C[C@H](O[C@H]2[C@H](C)[C@@H](O[C@@H]3O[C@H](C)C[C@H](N(C)C)[C@H]3O)[C@@H](C)C[C@]3(CO3)C(=O)[C@H](C)[C@@H](O)[C@@H](C)[C@@H](C)OC(=O)[C@@H]2C)O[C@@H](C)[C@@H]1O
3.2
5) C=CC[N+]1([C@H]2C[C@H]3[C@@H]4CC[C@H]5C[C@H](O)[C@@H](N6CCOCC6)C[C@]5(C)[C@H]4CC[C@]3(C)[C@H]2OC(C)=O)CCCC1
-2.81
6) CN=C(N)NCCC[C@H](N)C(=O)O
-7.28
7) O=C(O)c1ccc(NC2OC[C@@H](O)[C@H](O)[C@H]2O)cc1 (some centres undefined)
10.7
8) O=P(O)(O)OP(=O)(O)OP(=O)(O)O
-6.54
9) N[C@H](C(=O)O)[C@@H]1CC(Cl)=NO1
-12.5

---

# ASSAY DETAILS: qHTS assay to identify small molecule antagonists of the estrogen receptor alpha (ER-alpha) signaling pathway using the BG1 cell line in the presence of 0.1 nM 17-beta-estradiol - cell viability counter screen (AID 1259241); note: nearly all actives have a fitted effect of over 40% in size
# CONDITION CONTEXT: VM7Luc4E2 (BG1) viability, CellTiter-Fluor protease, 22 h, 0.1 nM estradiol agonist added; series mostly up to 92.4 µM
Records with an inconclusive call do not appear. Calls of active or inactive are those of the source. Calls come from the whole dose curve; as a rule, active = well fitted cell-killing curve with a large enough effect in the repeat runs; inconclusive = weak or mixed curves, or effect the other way; inactive = flat fitted curve, though single readings scatter.
Possible outcomes: true (1) for active, false (0) for inactive

1. O=C(Nc1ccc([N+](=O)[O-])cc1)Nc1ccc([N+](=O)[O-])cc1 (tested in a mixture with another compound)
false (0)
2. CC1(C)[C@H](C(=O)OCc2cccc(Oc3ccccc3)c2)[C@@H]1C=C(Cl)Cl
false (0)
3. [Cl][Dy]([Cl])[Cl]
false (0)
4. O=C(CCN1CCC(c2ccccc2)C1)c1ccc2c(c1)OCCO2 (stereo unspecified)
false (0)
5. CN[C@H]1CC[C@@H](c2ccc(Cl)c(Cl)c2)c2ccc(S(N)(=O)=O)cc21
false (0)
6. CC(C)(C)C1=CC(=O)C(C(C)(C)C)=CC1=O
false (0)
7. CCCCC/C=C\C=C\C(=O)OCC
false (0)
8. CCCCCCCCCCCCN1CCCC1=O
false (0)
9. N#CCCOCCC#N
false (0)
10. C=C1C(CCl)(CCl)C2(Cl)C(Cl)C(Cl)C1(Cl)C2(Cl)Cl (stereo unspecified)
false (0)
11. CCC(C)(C)c1ccc(CC(C)CN2C[C@@H](C)O[C@@H](C)C2)cc1 (stereo partly specified)
false (0)
12. Cc1cccc2c1ccc1ccccc12
false (0)
13. C/C(=N\[Si](C)(C)C)O[Si](C)(C)C
false (0)
14. S=C1NC=NC2N=CNC12 (stereo unspecified)
false (0)
15. COc1cccc(-c2ccc(/C=C\CN3CCCCCC3)cc2Cl)c1
false (0)
16. O=C1OC2(c3ccccc31)c1ccc(O)c(Br)c1Oc1c2ccc(O)c1Br
false (0)
17. C=COCCCC
false (0)
18. Cc1ccc(Cl)c(N)c1Cl
false (0)
19. C=CC(=O)OCC(Br)CBr (stereo unspecified)
false (0)
20. C/C=C/C(=O)C1=C(C)C=CCC1(C)C
false (0)
21. CC1CCC(C(C)(C)O)CC1 (stereo unspecified)
false (0)
22. c1ccc2c(c1)-c1ccc3ccc4cccc5cc-2c1c3c45
false (0)
23. C=C1CC[C@H]2O[C@]2(C)CC[C@@H]2[C@@H]1CC2(C)C
false (0)
24. CCCCCCCCCCCCCCCCCCNC(=O)OC1CCN(C(=O)OC[C@H](COC(=O)N(Cc2cccc[n+]2CC)C(=O)c2ccccc2OC)OC)CC1
false (0)
25. C=CC(=O)O[C@H]1C[C@@H]2CC[C@@]1(C)C2(C)C
false (0)
26. COc1cc(/C=C/C(=O)CC(=O)/C=C/c2ccc(O)c(OC)c2)ccc1O
false (0)
27. Cc1c[nH]c(=O)[nH]c1=O
false (0)
28. CCN(CCC#N)c1ccc(N=Nc2ccc([N+](=O)[O-])cc2)cc1
false (0)
29. O=C1OC(=O)c2cc(-c3ccc4c(c3)C(=O)OC4=O)ccc21
false (0)
30. Oc1ccc(Cl)cc1C1CCCC1
false (0)
31. O=C1CCCCCCCCCCCCCC1
false (0)
32. Cc1ccc2sc3cccc(C)c3c2c1
false (0)
33. Nc1cc([N+](=O)[O-])cc(Cl)c1O
false (0)
34. CC/C(=C(/c1ccc(O)cc1)c1ccc(OCCN(C)C)cc1)c1ccccc1
false (0)
35. CCCCCCCCCC[N+](C)(CCCCCCCCCC)CCC[Si](OC)(OC)OC
false (0)
36. O=C1CCC(=O)N1
false (0)
37. CCOC(=O)C1=NN(c2ccc(Cl)cc2Cl)C(C)(C(=O)OCC)C1 (stereo unspecified)
false (0)
38. O[Si](c1ccccc1)(c1ccccc1)c1ccccc1
false (0)
39. CC(c1cc(C(C)(C)C)cc(C(C)(C)C)c1O)c1cc(C(C)(C)C)cc(C(C)(C)C)c1O
false (0)
40. c1ccc2cc3c4ccccc4c4ccccc4c3cc2c1
false (0)
41. CCCCCN=C(N)N/N=C/c1c[nH]c2ccc(OC)cc12
true (1)
42. CCN(CC)c1ccc2c(c1)Oc1cc(N(CC)CC)ccc1C21OC(=O)c2ccccc21
true (1)
43. Nc1ccc(F)c([N+](=O)[O-])c1
false (0)
44. COc1ccc(OC)c(N=Nc2c(O)ccc3ccccc23)c1
true (1)
45. CC(C)C(=O)C(C)C
false (0)
46. CN(C/C=C/c1ccccc1)Cc1cccc2ccccc12
false (0)
47. COc1cc(OC)nc(NC(=O)NS(=O)(=O)Nc2ccccc2C(=O)N(C)C)n1
false (0)
48. Nc1c(Br)cc([N+](=O)[O-])cc1Br
false (0)
49. Cc1ccc(S(=O)(=O)C(I)I)cc1
true (1)
50. Cn1ccnc1
false (0)
51. COc1c(Br)cc(Br)c(C)c1Br
false (0)
